Molecular target: T1, mouse matriptase-2 ECD protein his tag (mouse, UniProt Q9DBI0 80-811)
T1 sequence: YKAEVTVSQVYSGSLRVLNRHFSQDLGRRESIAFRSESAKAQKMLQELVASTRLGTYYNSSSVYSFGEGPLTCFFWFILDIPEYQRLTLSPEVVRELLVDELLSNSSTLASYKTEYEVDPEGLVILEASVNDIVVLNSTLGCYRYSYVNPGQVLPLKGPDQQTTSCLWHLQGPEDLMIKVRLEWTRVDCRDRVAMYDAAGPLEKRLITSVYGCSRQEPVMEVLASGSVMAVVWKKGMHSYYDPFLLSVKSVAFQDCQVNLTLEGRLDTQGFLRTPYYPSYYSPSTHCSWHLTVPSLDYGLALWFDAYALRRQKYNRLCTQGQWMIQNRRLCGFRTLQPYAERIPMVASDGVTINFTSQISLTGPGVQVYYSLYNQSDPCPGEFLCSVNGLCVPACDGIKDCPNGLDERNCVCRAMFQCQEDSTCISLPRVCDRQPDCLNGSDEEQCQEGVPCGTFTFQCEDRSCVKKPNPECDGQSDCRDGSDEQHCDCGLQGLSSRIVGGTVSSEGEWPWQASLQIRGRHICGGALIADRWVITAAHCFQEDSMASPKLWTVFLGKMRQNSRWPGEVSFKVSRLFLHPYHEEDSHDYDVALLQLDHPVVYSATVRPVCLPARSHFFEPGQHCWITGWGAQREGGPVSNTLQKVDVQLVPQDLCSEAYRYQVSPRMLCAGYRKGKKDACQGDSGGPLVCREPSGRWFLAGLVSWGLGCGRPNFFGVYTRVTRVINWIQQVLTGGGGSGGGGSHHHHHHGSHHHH
Test: cell-based or functional assay
Parameter Inhibition enzymatic activity mouse MTP2 protein (IC50): see the listing below.
Write the number in nM without appending the unit.

Worked cases, Inhibition enzymatic activity mouse MTP2 protein (IC50) given:
INSERT INTO measurements (binder, unit_string, recorded_measurement) VALUES
  ('NORI-016 (antibody, human IgG4 S228P, lambda, V domains shown) VH: EVQLVESGGGLIQAGRSLRLSCAASGFTFDEHVMYWVRQIPGKGLEWISSITWKSDIIAYADSVKGRFTISRDNAKNALYLQMNSLRAEDTALYYCAREKDGDFYYYYFAMDVWGQGTTVTVSS VL: QSALTQPPSASGSPGQSVTISCTGTSSNVGYYNYVSWYQQHPGKAPKLMIYEVNKRPSGVPDRFSGSKSANTASLTVSGLQADDEADYYCSSYAGSNKVVFGGGTKLTVLG', 'nM', 9.27),
  ('NORI-002 (antibody, human IgG4 S228P, kappa, V domains shown) VH: EVQLVESGGGLVKPGRSLRLSCTGSGFTFGDFGMSWFRQAPGKGLEWVCFIRSKPYGGTTDYAPSVRGRFSISRDDSKGIVYLQMNSLRTEDTAVYYCSRNEILTGYYIFDYWGQGTLVTVSS VL: DIQMTQSPSSLSASLGDRVTITCQASHDITNYLIWYQQKPGKAPRLLIFDASILETGVPSRFSGSGSGTDFTFTISSLQPEDFATYYCQQYYNLPLTFGGGTKVDIKR', 'nM', 16.2);

Continue with the next binder.
QUERY: Data request, read-out Inhibition enzymatic activity mouse MTP2 protein (IC50), for NORI-007 (antibody, human IgG4 S228P, kappa, V domains shown) VH: EVQLVESGGGLVKPGRSLRLSCTGSGFTFGDFGMSWFRQAPGKGLEWVCFIRSKPYGGTTDYAPSVKGRFTISRDDSISIAYLQMNSLTTEDTAVYYCSRNDILTGYYIFDYWGQGTQVTVSS VL: DIQMTQSPSSLSASLGDSITITCQASQDITNYLIWYQHKPGKAPKLLIFDASNLETGVPSRFSGSGSGTDFTFTISSLQPEDYATYYCQQYYNLPLTFGGGTKVDIKR
RESULT: 39.3
